Target: AAK1 (full-length human protein) (Homo sapiens, UniProt Q2M2I8)
Construct: NP_055726.2
Sequence (Q2M2I8 1-863 isoform Q2M2I8-2): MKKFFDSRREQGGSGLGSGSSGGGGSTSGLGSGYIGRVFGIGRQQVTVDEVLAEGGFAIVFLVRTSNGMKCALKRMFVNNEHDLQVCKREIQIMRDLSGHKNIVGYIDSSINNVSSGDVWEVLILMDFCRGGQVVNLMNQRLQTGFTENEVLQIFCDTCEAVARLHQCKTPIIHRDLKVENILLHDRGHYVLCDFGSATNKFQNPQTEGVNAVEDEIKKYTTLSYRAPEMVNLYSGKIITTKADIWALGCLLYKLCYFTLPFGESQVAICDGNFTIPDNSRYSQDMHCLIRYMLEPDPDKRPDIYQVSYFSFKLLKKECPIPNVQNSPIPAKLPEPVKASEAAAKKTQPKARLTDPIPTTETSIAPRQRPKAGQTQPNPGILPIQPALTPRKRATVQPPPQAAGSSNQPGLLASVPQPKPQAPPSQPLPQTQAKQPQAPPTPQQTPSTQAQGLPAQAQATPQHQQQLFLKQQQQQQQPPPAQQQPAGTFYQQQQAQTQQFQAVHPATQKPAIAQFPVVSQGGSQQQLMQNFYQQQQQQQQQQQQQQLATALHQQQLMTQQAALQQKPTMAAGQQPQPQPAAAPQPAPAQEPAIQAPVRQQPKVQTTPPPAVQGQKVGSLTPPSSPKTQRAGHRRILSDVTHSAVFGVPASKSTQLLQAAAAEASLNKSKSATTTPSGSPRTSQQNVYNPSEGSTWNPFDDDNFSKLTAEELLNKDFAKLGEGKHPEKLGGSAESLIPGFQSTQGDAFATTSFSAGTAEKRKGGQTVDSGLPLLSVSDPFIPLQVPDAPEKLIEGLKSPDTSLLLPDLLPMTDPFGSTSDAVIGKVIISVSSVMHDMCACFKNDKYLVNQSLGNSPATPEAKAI
Assay: P81 filter plate assay
Format: biochemical
Settings: pyrazolo[1,5-a]pyrimidine-based inhibitors
pIC50: −log10 of the molar value.
Examples of molecules with documented pIC50 follow.
ENDPOINT: pIC50

{"MOLECULE": "CC(C)OC(=O)N1CCN(c2ccn3ncc(-c4ccncc4)c3n2)CC1", "RESULT": "≥ 8.00"}
{"MOLECULE": "FC(F)(F)CN1CCCC1CNc1ccn2ncc(Br)c2n1 (stereo not drawn)", "RESULT": "≥ 8.00"}
{"MOLECULE": "CN(C(=O)CC1CC1)[C@H]1CCN(c2ccn3ncc(-c4ccccn4)c3n2)C1", "RESULT": "≥ 7.00"}
{"MOLECULE": "CCCC(=O)N(C)[C@H]1CCN(c2ccn3ncc(-c4cccnc4OC)c3n2)C1", "RESULT": "≥ 8.00"}
{"MOLECULE": "COc1ccccc1-c1cnn2ccc(NC[C@@H]3CCCN3C(=O)OC(C)C)nc12", "RESULT": "≥ 8.00"}
{"MOLECULE": "COc1ncccc1-c1cnn2ccc(N3CCN(C(=O)N4CCCC4)CC3)nc12", "RESULT": "≥ 8.00"}
{"MOLECULE": "COc1ccccc1-c1cnn2ccc(N3CC[C@H](N(C)C(=O)OC(C)C)C3)nc12", "RESULT": "≥ 7.00"}
{"MOLECULE": "COc1ncccc1-c1cnn2ccc(NCCCC(F)(F)F)nc12", "RESULT": "≥ 8.00"}
{"MOLECULE": "COc1ncccc1-c1cnn2ccc(N3CCN(S(=O)(=O)CC(C)C)CC3)nc12", "RESULT": "≥ 7.00"}
{"MOLECULE": "CC(C)OC(=O)N1CCN(c2ccn3nccc3n2)CC1", "RESULT": "≥ 8.00"}
{"MOLECULE": "COc1ccncc1-c1cnn2ccc(N3CCN(C(=O)OC(C)C)CC3)nc12", "RESULT": "≥ 8.00"}
{"MOLECULE": "CC(C)NC(=O)c1cnn2ccc(N3CCN(C(=O)OC(C)C)CC3)nc12", "RESULT": "≥ 6.00"}
{"MOLECULE": "COc1ccnc(-c2cnn3ccc(N4CCN(C(=O)OC(C)C)CC4)nc23)c1", "RESULT": "≥ 8.00"}
{"MOLECULE": "COCc1ccccc1-c1cnn2ccc(NC[C@@H]3CCCN3C(=O)OC(C)(C)C)nc12", "RESULT": "≥ 8.00"}
{"MOLECULE": "COC(=O)N1CCC[C@H]1CNc1ccn2ncc(-c3ccccc3OC)c2n1", "RESULT": "≥ 8.00"}
{"MOLECULE": "O=C(CC(F)(F)F)N1CCC[C@H]1CNc1ccn2ncc(-c3ccncc3)c2n1", "RESULT": "≥ 8.00"}
{"MOLECULE": "CCOC(=O)N1CCN(c2ccn3ncc(-c4cccnc4OC)c3n2)CC1", "RESULT": "≥ 8.00"}
{"MOLECULE": "COc1ncccc1-c1cnn2ccc(N3CC[C@H](N(C)C(=O)CC(F)(F)F)C3)nc12", "RESULT": "≥ 8.00"}
{"MOLECULE": "COc1cc(-c2cnn3ccc(N4CCN(C(=O)OC(C)C)CC4)nc23)c(OC)nn1", "RESULT": "≥ 8.00"}
{"MOLECULE": "CC(C)(C)OC(=O)N1CC=C(c2ccn3nccc3n2)CC1", "RESULT": "≥ 7.00"}
{"MOLECULE": "Cc1cc(-c2cnn3ccc(N4CC[C@H](N(C)C(=O)OC(C)(C)C)C4)nc23)ccn1", "RESULT": "≥ 8.00"}
